Ref: patent US20100267561A1

Assignment: determine reported Sunflower plant response rating for the given compounds.
# Test system: common (oilseed) sunflower (Helianthus annuus)
# Procedure details: Test B pre-/postemergence plant response
# Assay type: in vivo
# Conditions used: Preemergence; 8 g ai/ha; scale 0 to 100

Structure smiles string | Sunflower plant response rating
CCc1cc(-c2ccc(C(F)(F)F)cc2)nn1-c1c(O)cnn(CC)c1=O | 0
COC(=O)Oc1cnn(C)c(=O)c1-n1nc(-c2ccc(Cl)cc2)cc1C | 0

Each of the following entries comes with a recorded value; kindly state Sunflower plant response rating for each.
1. CCc1cc(-c2ccc(Cl)cc2)nn1-c1c(OC(=O)OC(C)C)cnn(C)c1=O
2. Cc1cc(-c2ccc(Cl)cc2)nn1-c1c(OC(=O)C(C)C)cnn(C)c1=O

A)
[0, 0]

Please report Sunflower plant response rating for every entry that follows.
1. CCc1cc(-c2ccc(Cl)c(Cl)c2)nn1-c1c(O)cnn(C)c1=O
2. CCc1cc(-c2ccc(Cl)cc2)nn1-c1c(OS(C)(=O)=O)cnn(C)c1=O
3. CCc1c(C)c(-c2ccc(Cl)cc2)nn1-c1c(O)cnn(C)c1=O
4. Cc1cc(-c2ccc(Cl)cc2)nn1-c1c(OC(=O)c2ccccc2)cnn(C)c1=O
5. Cc1cc(-c2ccc(Cl)cc2)nn1-c1c(OC(=O)OCC(C)C)cnn(C)c1=O
6. Cc1cc(-c2ccc(Cl)cc2)nn1-c1c(OS(C)(=O)=O)cnn(C)c1=O

A)
0
0
0
0
0
0

* * *

# System: ducksalad (Heteranthera limosa)
# Procedure details: Test B flooded paddy test plant response
# Type: in vivo
# Conditions used: Flood (flooded paddy test), 125 g ai/ha; scale 0 to 100, 0 no effect, 100 complete control
Provide the recorded Plant response rating, Ducksalad for the entries that follow.
Numbers only.

Record excerpt, results attached:
Compound | Plant response rating, Ducksalad
Cn1ncc(O)c(-c2nn(-c3ccc(Cl)cc3)cc2Br)c1=O [Compound 31] | 0
Cn1ncc(O)c(-c2nn(-c3ccc(Cl)cc3)cc2Cl)c1=O [Compound 28] | 0
COCc1cc(-c2ccc(Br)cc2)nn1-c1c(O)cnn(C)c1=O [Compound 68] | 0

Now, please, on to the next compound.
Q) Given the compound Cc1cc(-c2ccc(Cl)cc2)nn1-c1c(OC(=O)C(C)C)cnn(C)c1=O [Compound 34] , write its reported Plant response rating, Ducksalad.
A) 30

* * *

For each entry below, report its Plant response rating, Barnyardgrass value.
# Test system: barnyardgrass (Echinochloa crus-galli)
# Procedure details: Test A pre-/postemergence plant response
# Type: in vivo
# Conditions used: Preemergence, 500 g ai/ha; 0 to 100 scale (0 no effect, 100 complete control)

Compound | Plant response rating, Barnyardgrass
Cc1cc(-c2ccc(Br)cc2)nn1-c1c(OC(=O)OC(C)C)cnn(C)c1=O [Compound 6] | 100
Cn1ncc(O)c(-c2nn(-c3ccc(Cl)cc3)cc2Br)c1=O [Compound 31] | 100
CCc1cc(-c2ccc(C(F)(F)F)cc2)nn1-c1c(OS(C)(=O)=O)cnn(C)c1=O [Compound 19] | 100
CCc1cc(-c2ccc(Cl)c(Cl)c2)nn1-c1c(O)cnn(C)c1=O [Compound 20] | 100
Cc1nc(-c2ccc(C(F)(F)F)cc2)sc1-c1c(O)cnn(C)c1=O [Compound 24] | 30

# next compound below
Q) Read off the recorded Plant response rating, Barnyardgrass for Cc1cc(-c2ccc(Br)cc2)nn1-c1c(O)cnn(C)c1=O [Compound 4]
A) 100

* * *

# System: green foxtail (Setaria viridis)
# Procedure details: Test B pre-/postemergence plant response
# Assay type: in vivo
# Conditions used: Postemergence, 62 g ai/ha; scale 0 to 100, 0 no effect, 100 complete control
Consider the following compounds; for each one, report its Plant response rating, Foxtail, Green.

Compound | Plant response rating, Foxtail, Green
Cc1cc(-c2ccc(Cl)cc2)nn1-c1c(OC(=S)N(C)C)cnn(C)c1=O [Compound 69] | 95
CCc1cc(-c2ccc(Cl)cc2)nn1-c1c(OC(=O)C(C)(C)C)cnn(C)c1=O [Compound 40] | 100
CCc1cc(-c2ccc(C(F)(F)F)cc2)nn1-c1c(O)cnn(CC)c1=O [Compound 67] | 100

--- query ---
Q) Retrieve Plant response rating, Foxtail, Green on green foxtail (Setaria viridis); query Cc1cc(-c2ccc(Cl)cc2)nn1-c1c(OC(=O)OCC(C)C)cnn(C)c1=O [Compound 57]
A) 100

* * *

# Tested on: wild oat (Avena fatua)
# Procedure details: Test C pre-/postemergence plant response
# Format: in vivo
# Conditions used: Preemergence, 16 g ai/ha; scale 0 to 100 (0 no effect, 100 complete control)
Kindly return yes if reported Plant response rating, Oat, Wild is no lower than 20; return no if it is lower.

Q) Form field: Plant response rating, Oat, Wild at least 20? Entry: Cc1cc(-c2ccc(Cl)cc2)nn1-c1c(OC(=O)OCC(C)C)cnn(C)c1=O [Compound 57]
A) no

* * *

So I've got a bunch of molecules here, and I need their Bermudagrass plant response rating values.
# System: bermudagrass (Cynodon dactylon)
# Procedure details: Test B pre-/postemergence plant response
# Format: in vivo
# Conditions used: 8 g ai/ha, postemergence; 0-100 scale

Here is how some molecules turned out for Bermudagrass plant response rating.
Structure smiles string | Value measured
Cc1nn(C)c(=O)c(-n2nc(-c3ccc(C(F)(F)F)cc3)cc2C)c1O | 65
CCc1cc(-c2ccc(C(F)(F)F)cc2)nn1-c1c(OS(C)(=O)=O)cnn(C)c1=O | 80
Cc1nn(C)c(=O)c(-n2nc(-c3ccc(Br)cc3)cc2C)c1O | 40

Would you be so kind as to report Bermudagrass plant response rating for each listed record?
1. CCc1cc(-c2ccc(Cl)cc2)nn1-c1c(OC(=O)C(C)(C)C)cnn(C)c1=O
2. CCc1cc(-c2ccc(Cl)cc2)nn1-c1c(OC(=O)OC(C)C)cnn(C)c1=O

A)
[0, 0]

* * *

# Test system: downy bromegrass (Bromus tectorum)
# Procedure details: Test B pre-/postemergence plant response
# Type: in vivo
# Conditions used: Postemergence, 16 g ai/ha; scale 0 to 100
# Excerpt: […] Plant species in the flooded paddy test consisted of rice (Oryza sativa), umbrella sedge (Cyperus difformis), ducksalad (Heteranthera limosa) and barnyardgrass (Echinochloa crus-galli) grown to the 2-leaf stage for testing. […] Treated plants and controls were maintained in a greenhouse for 13 to 15 days, after which time all species were compared to controls and visually evaluated. […]
Property: Plant response rating, Bromegrass, Downy

Structure smiles string | Plant response rating, Bromegrass, Downy
Cc1cc(-c2ccc(Cl)cc2)nn1-c1c(OS(C)(=O)=O)cnn(C)c1=O | 5
CCc1cc(-c2ccc(F)cc2)nn1-c1c(O)cnn(C)c1=O | 0
CCc1cc(-c2ccc(Cl)cc2)nn1-c1c(OC(=O)OC(C)C)cnn(C)c1=O | 50
Cc1cc(-c2ccc(Cl)cc2)nn1-c1c(OC(=O)c2ccccc2)cnn(C)c1=O | 50

For each listed entry, give its Plant response rating, Bromegrass, Downy.
1. CCc1cc(-c2ccc(Cl)cc2)nn1-c1c(OS(C)(=O)=O)cnn(C)c1=O
2. CCc1cc(-c2ccc(C(F)(F)F)cc2)nn1-c1c(O)cnn(CC)c1=O
3. Cc1cc(-c2ccc(Cl)cc2)nn1-c1c(OC(=S)N(C)C)cnn(C)c1=O
4. CCc1cc(-c2ccc(Cl)cc2)nn1-c1c(OC(=O)C(C)(C)C)cnn(C)c1=O
5. COCc1cc(-c2ccc(Br)cc2)nn1-c1c(O)cnn(C)c1=O

A)
[10, 80, 0, 60, 0]

* * *

# Tested on: wild oat (Avena fatua)
# Procedure details: Test B pre-/postemergence plant response
# Format: in vivo
# Conditions used: Preemergence, 16 g ai/ha; scale 0 to 100 (0 no effect, 100 complete control)
Exercise: state measured Plant response rating, Oat, Wild for each of the compounds provided.
Give bare numbers.

// worked examples, Plant response rating, Oat, Wild included
Structure smiles string | Plant response rating, Oat, Wild
Cc1cc(-c2ccc(Cl)cc2)nn1-c1c(OS(C)(=O)=O)cnn(C)c1=O | 50
Cn1ncc(O)c(-c2nn(-c3ccc(Cl)cc3)cc2Br)c1=O | 45

Respectfully, I request Plant response rating, Oat, Wild for each entry included below.
1. COC(=O)Oc1cnn(C)c(=O)c1-n1nc(-c2ccc(Cl)cc2)cc1C
2. CCc1cc(-c2ccc(F)cc2)nn1-c1c(O)cnn(C)c1=O

A)
1. 80
2. 0

* * *

Kindly state Blackgrass plant response rating for each of the entries shown.
# System: blackgrass (Alopecurus myosuroides)
# Procedure details: Test B pre-/postemergence plant response
# Format: in vivo
# Conditions used: Preemergence; 8 g ai/ha; scale 0 to 100
# Text: […] Plant species in the flooded paddy test consisted of rice (Oryza sativa), umbrella sedge (Cyperus difformis), ducksalad (Heteranthera limosa) and barnyardgrass (Echinochloa crus-galli) grown to the 2-leaf stage for testing. […] Treated plants and controls were maintained in a greenhouse for 13 to 15 days, after which time all species were compared to controls and visually evaluated. […]

Please review the following examples before continuing.
Structure smiles string | Assay system | Property | Value measured
COC(=O)Oc1cnn(C)c(=O)c1-n1nc(-c2ccc(Cl)cc2)cc1C | blackgrass (Alopecurus myosuroides) | Blackgrass plant response rating | 60
Cc1cc(-c2ccc(Cl)cc2)nn1-c1c(OC(=O)C(C)C)cnn(C)c1=O | blackgrass (Alopecurus myosuroides) | Blackgrass plant response rating | 0

Quick batch: Blackgrass plant response rating for everything below.
1. CCc1cc(-c2ccc(C(F)(F)F)cc2)nn1-c1c(O)cnn(CC)c1=O
2. Cc1cc(-c2ccc(Cl)cc2)nn1-c1c(OS(C)(=O)=O)cnn(C)c1=O
3. CCc1cc(-c2ccc(Cl)cc2)nn1-c1c(OS(C)(=O)=O)cnn(C)c1=O
4. CCc1cc(-c2ccc(C(F)(F)F)cc2)nn1-c1c(OS(C)(=O)=O)cnn(C)c1=O

A)
100
80
40
95
